Assay: Cell viability assay, MTT endpoint, 3T3
Type: cell-based, murine
Details: mouse, 3T3 fibroblasts, 3T3, 250 µg/mL, 24 h
PARAMETER: viability at 24 h, 250 µg/mL (%)
Report only the number, with the unit % understood.

Input line: For the molecule CC(C)(C)N1CC(CCl)C(Cl)(Cl)C1=O (stereo not shown) [2a] , what viability at 24 h, 250 µg/mL is on record?
Output line: 15

====

# Lookup of reported hemolysis at 10 µg/mL keyed by entry
Test: Hemolysis assay with human erythrocyte suspension
Assay type: cell-based
Conditions: human, washed human erythrocyte suspension; 10 µg/mL, PBS pH 7.4; read-out: degree of hemolysis
Experimental: Human blood samples were obtained from the Banc de Sang i Teixits de Barcelona (Spain) from the Catalan Department of Health. Blood was deposited in tubes with the anticoagulant EDTA-K3. Blood samples were centrifuged at 3000 rpm and 4 °C for 10 min (Megafuge 2.0 R. Heraeus Instruments, Hanau, Germany) to induce sedimentation. Plasma was extracted with a Pasteur pipette. […] The hemolysis assay determined the capability of different compounds to induce the hemolysis of the erythrocyte membrane. […]
Report only the number, with the unit % understood.

Examples with answers:
O=C1CCC(N2CC(CCl)C(Cl)(Cl)C2=O)CC1 (centres unmarked) | 0.005
O=C1N(c2ccccc2)CC(CCl)C1(Cl)Cl (centres unmarked) | 0.005
CC(C)(C)N1CCC(CCl)C(Cl)(Cl)C1=O (centres unmarked) | 0.003
O=C1NCC(CCl)C1(Cl)Cl (centres unmarked) | 0.02

Now for a further compound.
Input line: For the compound CC(C)(C)N1CC(CCl)C(Cl)(Cl)C1=O (centres unmarked) , what hemolysis at 10 µg/mL is on record?
Output line: 0.02

====

# Lookup of reported viability at 24 h keyed by entry
Assay: Cell viability assay, NRU endpoint, cell line not specified
Assay type: cell-based
Conditions: up to 250 µg/mL, read-out: minimum cell viability values
Procedure: The murine Swiss albino fibroblasts (3T3), the human breast adenocarcinoma (MCF-7), the human epithelial carcinoma (HeLa) and the squamous cell carcinoma (A431) cell lines were obtained from Celltec UB. […] The neutral red uptake (NRU) assay is based on the accumulation of dye in the lysosomes of viable cells. […] The absorbance of the resulting solutions was measured at 550 nm (Bio-Rad 550 microplate reader, Bio-Rad California, Hercules, CA, USA). […]

CC(C)(C)N1CC(CCl)C(Cl)(Cl)C1=O (centres unmarked) | 30%
CC(C)(C)N1CCC(CCl)C(Cl)(Cl)C1=O (centres unmarked) | 70%
O=C1NCC(CCl)C1(Cl)Cl (centres unmarked) | 80 to 85%

Input line: For the molecule O=C1CCC(N2CC(CCl)C(Cl)(Cl)C2=O)CC1 (centres unmarked) , what viability at 24 h is on record?
Output line: 100%

Input line: Check O=C1N(c2ccccc2)CC(CCl)C1(Cl)Cl (centres unmarked) too.
Output line: 80 to 85%

====

Test: Hemolysis assay with human erythrocyte suspension
Type: cell-based
Settings: human, washed human erythrocyte suspension; 80 µg/mL, PBS pH 7.4; read-out: degree of hemolysis
PARAMETER: hemolysis at 80 µg/mL

CC(C)(C)N1CC(CCl)C(Cl)(Cl)C1=O (stereo not shown) | ~0.07%

Input line: For the molecule O=C1N(c2ccccc2)CC(CCl)C1(Cl)Cl (stereo not shown) , what hemolysis at 80 µg/mL is on record?
Output line: 0.1%

Input line: Check CC(C)(C)N1CCC(CCl)C(Cl)(Cl)C1=O (stereo not shown) too.
Output line: ~0.07%

Input line: Check O=C1CCC(N2CC(CCl)C(Cl)(Cl)C2=O)CC1 (stereo not shown) too.
Output line: ~0.07%

====

Assay: Cell viability assay, MTT endpoint, cell line not specified
Type: cell-based
Conditions: under discrete conditions, up to 250 µg/mL, read-out: minimum cell viability values
PARAMETER: viability at 24 h

Input line: For the molecule O=C1CCC(N2CC(CCl)C(Cl)(Cl)C2=O)CC1 (centres unmarked) , what viability at 24 h is on record?
Output line: 60 to 70%

Input line: Check O=C1NCC(CCl)C1(Cl)Cl (centres unmarked) too.
Output line: 60 to 70%
